measured-target: FLJ41991-derived protein (Homo sapiens, UniProt P57764, E293G)
Construct: His-tag (N); made in house; host or cells: Escherichia coli BL21star(DE3)pLysS (pDEST17)
method-summary: SEC/MS interaction analysis, FLJ41991-derived protein (GSDMDC1)
Type: binding
assay-conditions: compound 25 μM, protein 5 μM
Method: To analyze the interactions between commonly used drugs and proteins expressed from human full-length cDNA clones while keeping both the proteins and the compounds in non-modified, non-immobilized state, size exclusion chromatography (SEC) and mass analysis were used in combination. The specific procedures are shown below. […] Protein concentrations were measured using BCA Protein Assay (PIERCE), in consideration of the purity calculated by SDS-PAGE. […]
Label key: y means spectrum intensity of the compound in the SEC spin column filtrate under 300000; n means spectrum intensity of the compound in the SEC spin column filtrate of 300000 or more.

INSERT INTO results (molecule, class_name) VALUES
  ('CC(C)(C)c1ccc(C(O)CCCN2CCC(C(O)(c3ccccc3)c3ccccc3)CC2)cc1 (stereo not shown)', 'n'),
  ('CN(C)C(=O)C(CCN1CCC(O)(c2ccc(Cl)cc2)CC1)(c1ccccc1)c1ccccc1 [loperamide]', 'n'),
  ('CN1[C@@H]2CC[C@H]1C[C@@H](OC(c1ccccc1)c1ccccc1)C2', 'n'),
  ('OCCN1CCN(CCCN2c3ccccc3Sc3ccc(Cl)cc32)CC1', 'y'),
  ('COc1ccc(CCN2CCC(Nc3nc4ccccc4n3Cc3ccc(F)cc3)CC2)cc1', 'y'),
  ('CCN(CC)CCCC(C)Nc1c2ccc(Cl)cc2nc2ccc(OC)cc12 (stereo not shown)', 'y'),
  ('CN(C)CC/C=C1/c2ccccc2Sc2ccc(Cl)cc21', 'y'),
  ('OCCN1CCN(CCCN2c3ccccc3Sc3ccc(C(F)(F)F)cc32)CC1', 'y');

Query: Dear colleague, could you confirm whether spectrum intensity of the compound in the SEC spin column filtrate of OC(c1cc(C(F)(F)F)nc2c(C(F)(F)F)cccc12)C1CCCCN1 (stereo not shown) falls below 300000? Thanks.
Reply: y

Query: Dear colleague, could you confirm whether spectrum intensity of the compound in the SEC spin column filtrate of O=C(c1ccc(OCCN2CCCCC2)cc1)c1c(-c2ccc(O)cc2)sc2cc(O)ccc12 falls below 300000? Thanks.
Reply: y

* * *

spectrum intensity of the compound in the SEC spin column filtrate by entry:
measured-target: FLJ41991-derived protein (Homo sapiens, UniProt P57764, E293G)
Construct: His-tag (N); made in house; host or cells: Escherichia coli BL21star(DE3)pLysS (pDEST17)
Sequence (P57764 265-484 E293G): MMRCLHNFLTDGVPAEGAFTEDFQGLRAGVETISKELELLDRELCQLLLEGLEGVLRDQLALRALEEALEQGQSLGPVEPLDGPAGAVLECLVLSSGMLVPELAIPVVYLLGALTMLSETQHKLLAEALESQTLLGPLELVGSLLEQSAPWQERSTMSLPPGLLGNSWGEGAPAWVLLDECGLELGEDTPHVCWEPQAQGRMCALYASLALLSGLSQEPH
method-summary: SEC/MS interaction analysis, FLJ41991-derived protein (GSDMDC1)
Assay type: binding
assay-conditions: compound 62.5 μM, protein 5 μM

Record excerpt, results attached:
INSERT INTO results (molecule, data_value) VALUES
  ('CC(C)(C)c1ccc(C(O)CCCN2CCC(C(O)(c3ccccc3)c3ccccc3)CC2)cc1 (stereo not shown)', 1759965),
  ('CN(C)C(=O)C(CCN1CCC(O)(c2ccc(Cl)cc2)CC1)(c1ccccc1)c1ccccc1 [loperamide]', 3520629);

Query: So what spectrum intensity of the compound in the SEC spin column filtrate did OC(c1cc(C(F)(F)F)nc2c(C(F)(F)F)cccc12)C1CCCCN1 (stereo not shown) get with FLJ41991-derived protein (Homo sapiens, UniProt P57764, E293G)?
Reply: 528117

Query: So what spectrum intensity of the compound in the SEC spin column filtrate did CN(C)CC/C=C1/c2ccccc2Sc2ccc(Cl)cc21 get with FLJ41991-derived protein (Homo sapiens, UniProt P57764, E293G)?
Reply: 210998

Query: So what spectrum intensity of the compound in the SEC spin column filtrate did COc1ccc(CCN2CCC(Nc3nc4ccccc4n3Cc3ccc(F)cc3)CC2)cc1 get with FLJ41991-derived protein (Homo sapiens, UniProt P57764, E293G)?
Reply: 361364

Query: So what spectrum intensity of the compound in the SEC spin column filtrate did CN1[C@@H]2CC[C@H]1C[C@@H](OC(c1ccccc1)c1ccccc1)C2 get with FLJ41991-derived protein (Homo sapiens, UniProt P57764, E293G)?
Reply: 1861766

Query: So what spectrum intensity of the compound in the SEC spin column filtrate did CCN(CC)CCCC(C)Nc1c2ccc(Cl)cc2nc2ccc(OC)cc12 (stereo not shown) get with FLJ41991-derived protein (Homo sapiens, UniProt P57764, E293G)?
Reply: 598920

Query: So what spectrum intensity of the compound in the SEC spin column filtrate did O=C(c1ccc(OCCN2CCCCC2)cc1)c1c(-c2ccc(O)cc2)sc2cc(O)ccc12 get with FLJ41991-derived protein (Homo sapiens, UniProt P57764, E293G)?
Reply: 153267

Query: So what spectrum intensity of the compound in the SEC spin column filtrate did OCCN1CCN(CCCN2c3ccccc3Sc3ccc(Cl)cc32)CC1 get with FLJ41991-derived protein (Homo sapiens, UniProt P57764, E293G)?
Reply: 208220

Query: So what spectrum intensity of the compound in the SEC spin column filtrate did OCCN1CCN(CCCN2c3ccccc3Sc3ccc(C(F)(F)F)cc32)CC1 get with FLJ41991-derived protein (Homo sapiens, UniProt P57764, E293G)?
Reply: 1055670
